Attribution: PubChem BioAssay AID328

# Test system: BDF1 mice, P388 leukemia ip, median survival T/C
# MEASUREMENT_PROTOCOL: NCI In Vivo Anticancer Drug Screen. Data for tumor model P388 Leukemia (intraperitoneal) in B6D2F1 (BDF1) mice
# MEASUREMENT_SETUP: endpoint: median survival time; dose: 50.0 mg/kg/injection; schedule: Q01DX009 (ip); vehicle: saline with Tween-80; higher = longer survival
Inconclusive results and toxic doses are left out.
Would you kindly list T/C for each of these compounds?

Q) # get_value(readout='T/C', item= CCCCCCC(=O)/C=C/c1cccc(O)c1 )
A) 104 % of control

Q) Proceed to CC(=O)OC1OC(CSC(=N)N)C(OC(C)=O)C(OC(C)=O)C1OC(C)=O (configuration not stated)
A) 116 % of control

Q) Proceed to Cc1cc2nc(Oc3ccccc3)nc(=O)n2c(C)n1
A) 97 % of control

Q) Proceed to O=C1Nc2ccccc2S/C1=C\c1ccc(C(F)(F)F)cc1
A) 115 % of control

Q) Proceed to O=C(Cl)C1=C(c2ccccc2)C1c1ccccc1 (configuration not stated)
A) 102 % of control

Q) Proceed to COc1cc2ccccc2c(-c2c(O)c(OC)cc3ccccc23)c1O
A) 91 % of control

Q) Proceed to O=C(CCCCl)CC(O)(C(F)(F)F)C(F)(F)F
A) 115 % of control

Q) Proceed to CC(=O)Oc1c(Br)cc(Br)cc1-c1ccccc1
A) 92 % of control

Q) Proceed to OCC1OC(c2ccc(OCc3ccccc3)cc2OCc2ccccc2)C(O)C1O (configuration not stated)
A) 105 % of control

Q) Proceed to O=[N+]([O-])c1cccc2c1ccc[n+]2Cc1ccccc1
A) 122 % of control

Q) Proceed to CN(C)c1ccc(/C=C/c2ccnc3cc(Cl)ccc23)cc1
A) 118 % of control

Q) Proceed to Cc1nc2nc(N)nc(N)c2nc1C
A) 100 % of control

###

# Test system: BDF1 mice, P388 leukemia ip, median survival T/C
# MEASUREMENT_PROTOCOL: NCI In Vivo Anticancer Drug Screen. Data for tumor model P388 Leukemia (intraperitoneal) in B6D2F1 (BDF1) mice
# MEASUREMENT_SETUP: endpoint: median survival time; dose: 100.0 mg/kg/injection; schedule: Q01DX009 (ip); vehicle: saline with Tween-80
Toxic doses and inconclusive results are not listed. The calls were made as follows: active = survival T/C of 150% or more; inactive = T/C below 125% in these data.
Would you mind answering with one of these outcomes? 1 = active, -1 = inactive

Q) Tell me the assay call for COc1ccc(C2CCc3cc4c(cc3/C2=N/O)OCO4)cc1OC (configuration not stated) please.
A) -1

Q) Proceed to CCOC(=O)[C@]1(Br)CC[C@@]1(Br)C(=O)OCC
A) -1

Q) Proceed to CS(=O)/C=C(\c1ccccc1)c1cccs1 (configuration not stated)
A) -1

Q) Proceed to O=C(/C=C/c1ccc(Cl)cc1Cl)c1ccc(Cl)cc1
A) -1

Q) Proceed to Cc1ccc(CNc2cccnc2)cc1
A) -1

Q) Proceed to CSc1ncnc2c1ncn2CO
A) 1

Q) Proceed to FC(F)(F)c1ccc(C=Nc2ccc(Oc3ccccc3)cc2)cc1
A) -1

Q) Proceed to O=C(Nc1cccc2c(OC(=O)C(Cl)Cl)c(N=Nc3ccc(S(=O)(=O)Nc4nccs4)cc3)cc(N=Nc3ccc(S(=O)(=O)Nc4nccs4)cc3)c12)C(Cl)Cl (tested in a mixture with another compound)
A) -1

Q) Proceed to COc1ccc(OC)c(NC=O)c1
A) -1

Q) Proceed to N#Cc1ccc(C(=O)/C=C/c2ccc(OCc3ccccc3)cc2)cc1
A) -1

Q) Proceed to O=C1c2ccccc2C(=O)N1CCCn1c2ccccc2c2cnccc21
A) -1

Q) Proceed to COC(OC)c1[nH]c(=S)[nH]c(=O)c1Cc1ccc(C)c(C)c1
A) -1

Q) Proceed to COc1cc(/C=N\Nc2ccccc2[N+](=O)[O-])cc(OC)c1OC
A) -1

Q) Proceed to C=CCCCCCCCCC(=O)NCCN1CCOCC1
A) -1

Q) Proceed to O=C(NC(=O)c1c(F)cccc1F)Nc1ccc(Br)cn1
A) -1

Q) Proceed to C[C@@H]1CC2=CC(=O)CC[C@]2(C)[C@H]2CC[C@]3(C)[C@@H](O)CC[C@H]3[C@H]12
A) -1

Q) Proceed to Oc1ccccc1-c1nnc2sc3c(Cl)c4nn5c(-c6ccccc6O)nnc5sc4c(Cl)c3nn12
A) -1

Q) Proceed to O=[N+]([O-])c1cc(C(F)(F)F)cc([N+](=O)[O-])c1N1CCCC(n2cccc2)C1 (configuration not stated)
A) -1

Q) Proceed to CC(C)CCCC(C)C1CCC2C3CC=C4CC(OP(=O)(N5CC5)N5CC5)CCC4(C)C3CCC12C (configuration not stated)
A) -1

Q) Proceed to CCOC(=O)c1cccc(OP(=O)(N(C)C)N(C)C)c1
A) -1

Q) Proceed to Cc1ccc(-c2nc3ccccc3c(=O)n2/N=C/c2ccccc2)cc1
A) -1

Q) Proceed to O=c1[nH]nc(NCCO)c2ccccc12
A) -1

Q) Proceed to Cc1nc2ccccc2nc1CC(O)(c1ccccc1)c1cccc2ccccc12 (configuration not stated)
A) -1

Q) Proceed to CN1c2ccccc2C(=O)NC1c1ccc([N+](=O)[O-])s1 (configuration not stated)
A) -1

Q) Proceed to COCCCn1c(C(Cl)(Cl)Cl)nn2c(=O)c3ccccc3nc2c1=O
A) -1

Q) Proceed to CCOC(=O)C(OCc1ccccc1)C(=O)OCC
A) -1

Q) Proceed to O=C(CI)N1c2ccccc2Sc2ccc3ccccc3c21
A) -1

Q) Proceed to C(=Nc1ccccc1)c1ccc(-c2ccccc2)cc1
A) -1

Q) Proceed to O=C1c2ccccc2C(=O)N1C1CCC(O)CC1 (configuration not stated)
A) -1

Q) Proceed to C=C1CCC2C1C1C(C(C)C)CCC21C (configuration not stated)
A) -1

Q) Proceed to CN(C)NC1OC(C(O)S(=O)(=O)O)C(OCc2ccccc2)C(OCc2ccccc2)C1O (configuration not stated)
A) -1

Q) Proceed to C1CCCC2(CCC1)OCCO2
A) -1

Q) Proceed to COc1cccc(Nc2sc(C(=O)c3cc4cc(Cl)ccc4o3)c(N)c2C#N)c1
A) -1

Q) Proceed to Cc1nc2ccccc2c(=O)n1/N=C/c1ccco1
A) -1

Q) Proceed to CCOC(=O)C1CC1Cc1ccccc1 (configuration not stated)
A) -1

Q) Proceed to CC(=O)Oc1c(Br)cc(Br)cc1-c1ccccc1
A) -1

Q) Proceed to CCSC(=O)CC
A) -1

Q) Proceed to Cc1ccc(-n2c(O)c(C=N)c(=O)[nH]c2=O)cc1
A) -1

Q) Proceed to CSCCC(NC(=O)NC(CCSC)C(=O)Oc1ccc([N+](=O)[O-])cc1)C(=O)Oc1ccc([N+](=O)[O-])cc1 (configuration not stated)
A) -1

Q) Proceed to CCOC(=O)N1CCN(CCCCCOc2ccc(CC(C)(C)C)cc2Cl)CC1
A) -1

Q) Proceed to CCCCCCCCCCCC(=O)CC(SCC)c1ccccc1 (configuration not stated)
A) -1

Q) Proceed to CC/C(=C(\CC)c1ccc(OC)cc1)c1ccc(OC)cc1
A) -1

Q) Proceed to O=C(NC(=S)N1CCOCC1)c1ccccc1
A) -1

Q) Proceed to CCN/C(C)=C\C(=O)OCC
A) -1

Q) Proceed to c1ccc(-c2ncnc3c2Cc2ccccc2-3)cc1
A) -1

Q) Proceed to CS(=O)(=O)OCC(O)C(O)COS(C)(=O)=O (configuration not stated)
A) -1

Q) Proceed to O=C(Nc1cccc2ccccc12)C(F)(F)F
A) -1

###

# Tested on: BDF1 mice, P388 leukemia ip, median survival T/C
# MEASUREMENT_PROTOCOL: NCI In Vivo Anticancer Drug Screen. Data for tumor model P388 Leukemia (intraperitoneal) in B6D2F1 (BDF1) mice
# MEASUREMENT_SETUP: endpoint: median survival time; dose: 4.0 mg/kg/injection; schedule: Q01DX009 (ip); vehicle: saline with Tween-80; higher = longer survival
Inconclusive results and toxic doses are left out.
TEST_READOUT: T/C

Q) # get_value(readout='T/C', item= C/C=C1\C[N+]2(C)CCC34c5ccccc5NC32C(O)CC1C4(CO)C(=O)OC (stereo not given) )
A) 93 % of control

Q) Proceed to C[n+]1ccc(Nc2ccc(NC(=O)c3ccc(Nc4cc[n+](C)c5ccc(N)cc45)cc3N)cc2)cc1
A) 229 % of control

Q) Proceed to O=C(O)c1ccc(N=NSc2ncnc3nc[nH]c23)cc1O
A) 150 % of control

Q) Proceed to O=NN(CCCl)C(=O)Nc1c[nH]c(=O)[nH]c1=O
A) 195 % of control

Q) Proceed to CC1NC(=O)C2Cc3ccc(O)c(c3)Oc3ccc(cc3)C(O)C(C(=O)N2C)N(C)C(=O)C(C)NC(=O)C(Cc2ccc(O)cc2)N(C)C(=O)C(C)NC1=O (stereo not given)
A) 107 % of control
